- TESTED_ON: HLA-B*44:05 (Homo sapiens, UniProt P01889, A223V/A65T/A93T/A95T/D201E/D98Y/E176V/E187L/E204Q/E69K/G107R/H137Y/K202T/L105A/L119I/N104T/N87E/Q56L/Q94N/R106L/R155S/R180D/S101N/S121R/S35A/S48T/T118I/V36M/W191S/Y91S)
- PROTOCOL_DESCRIPTION: MHC binding assay (UV-ligand exchange, β2m ELISA, peptide exchange yield)
- MEASUREMENT_SETUP: binding to HLA-B*44:05
ATTRIBUTE_MEASURED: Peptide exchange (MHC class I binding score, peptide exchange yield)

193 (RELRPLFDRQW; listed as Homo sapiens) [compound 193] | +++ (>50 = +++)
119 (VEVKYEGHW; listed as Homo sapiens) [compound 119] | ++++ (>75% = ++++)
379 (AENRVGKMEA; listed as Homo sapiens) [compound 379] | ++ (>20% = ++)
390 (GEYNKHAQLW; listed as Homo sapiens) [compound 390] | ++++ (>75% = ++++)
197 (NEILTIHF; listed as Homo sapiens) [compound 197] | ++ (>20% = ++)

Continue with the substance presented below.
# lookup: Peptide exchange (MHC class I binding score, peptide exchange yield) of 6 (AELVGPVIPQDW; listed as Homo sapiens) [compound 6]
+++ (>50 = +++)

====

- TESTED_ON: HLA-B*44:05 (Homo sapiens, UniProt P01889, A223V/A65T/A93T/A95T/D201E/D98Y/E176V/E187L/E204Q/E69K/G107R/H137Y/K202T/L105A/L119I/N104T/N87E/Q56L/Q94N/R106L/R155S/R180D/S101N/S121R/S35A/S48T/T118I/V36M/W191S/Y91S)
- PROTOCOL_DESCRIPTION: MHC binding assay (UV-ligand exchange, β2m ELISA, peptide exchange yield)
- MEASUREMENT_SETUP: binding to HLA-B*44:05
ATTRIBUTE_MEASURED: Peptide exchange (MHC class I binding score, peptide exchange yield)

Field: example entries. Status: answers known.
420 (MEVDPIGHVY; listed as Homo sapiens) [compound 420] | +++ (>50 = +++)
149 (AETEPERHLG; listed as Homo sapiens) [compound 149] | ++ (>20% = ++)
409 (QEAKPRATW; listed as Homo sapiens) [compound 409] | +++ (>50 = +++)
439 (VEVGDRTDW; listed as Homo sapiens) [compound 439] | +++ (>50 = +++)

# lookup: Peptide exchange (MHC class I binding score, peptide exchange yield) of 368 (KEKVPGITI; listed as Homo sapiens) [compound 368]
+++ (>50 = +++)

# lookup: Peptide exchange (MHC class I binding score, peptide exchange yield) of 90 (EESLLSSW; listed as Homo sapiens) [compound 90]
+++ (>50 = +++)

# lookup: Peptide exchange (MHC class I binding score, peptide exchange yield) of 440 (QEVAQVASA; listed as Homo sapiens) [compound 440]
++ (>20% = ++)

# lookup: Peptide exchange (MHC class I binding score, peptide exchange yield) of 46 (SELGLPKEV; listed as Homo sapiens) [compound 46]
++ (>20% = ++)
